Procedure details: activity coefficient (dimensionless); of the first substance listed, at infinite dilution; xn = mol fraction of the nth substance listed
Condition context: 323.15 K; Liquid; Chromatography; x1 = 0
Measured property: activity coefficient
Write the number on its own, no unit after it.

query: // lookup activity coefficient for CCc1ccccc1 [ethylbenzene] + CCCOC[n+]1ccn(Cc2ccccc2)c1.O=S(=O)([N-]S(=O)(=O)C(F)(F)F)C(F)(F)F
result: 1.5

query: // lookup activity coefficient for C#CCCCCC [1-heptyne] + CCCCCCCCn1cc[n+](COCCC)c1C.O=S(=O)([N-]S(=O)(=O)C(F)(F)F)C(F)(F)F
result: 1.68

query: // lookup activity coefficient for C#CCCCC [1-hexyne] + CCCCCCCCn1cc[n+](COCCCOC[n+]2ccn(CCCCCCCC)c2C)c1C.N#C[N-]C#N.N#C[N-]C#N
result: 1.72

query: // lookup activity coefficient for CCCC(C)=O [pentan-2-one] + CCCOC[n+]1ccn(Cc2ccccc2)c1.F[B-](F)(F)F
result: 1.79

query: // lookup activity coefficient for c1ccncc1 [pyridine] + CCCCCCCCn1cc[n+](COCCCOC[n+]2ccn(CCCCCCCC)c2C)c1C.O=S(=O)([N-]S(=O)(=O)C(F)(F)F)C(F)(F)F.O=S(=O)([N-]S(=O)(=O)C(F)(F)F)C(F)(F)F
result: 0.13

query: // lookup activity coefficient for CCC[N+](=O)[O-] [1-nitropropane] + CCCOC[n+]1ccn(Cc2ccccc2)c1.F[B-](F)(F)F
result: 1.16

----------
Would you mind telling me the reported activity coefficient of each entry?
Procedure details: activity coefficient (dimensionless); of the first substance listed, at infinite dilution; xn = mol fraction of the nth substance listed
Condition context: 343.15 K; Liquid; Chromatography; x1 = 0

query: // lookup activity coefficient for ClC(Cl)Cl [trichloromethane] + CCCOC[n+]1ccn(C)c1.F[B-](F)(F)F
result: 1.87

query: // lookup activity coefficient for C#CCCCCC [1-heptyne] + Cn1cc[n+](COCCCOC[n+]2ccn(C)c2)c1.O=S(=O)([N-]S(=O)(=O)C(F)(F)F)C(F)(F)F.O=S(=O)([N-]S(=O)(=O)C(F)(F)F)C(F)(F)F
result: 5.71

query: // lookup activity coefficient for ClCCl [dichloromethane] + CCCOC[n+]1ccn(Cc2ccccc2)c1.N#C[N-]C#N
result: 0.68

query: // lookup activity coefficient for ClCCl [dichloromethane] + CCCOC[n+]1ccn(C)c1.O=S(=O)([N-]S(=O)(=O)C(F)(F)F)C(F)(F)F
result: 0.75

----------
Procedure details: activity coefficient (dimensionless); of the first substance listed, at infinite dilution; xn = mol fraction of the nth substance listed
Condition context: 343.15 K; Liquid; Chromatography; x1 = 0
Would you mind telling me the reported activity coefficient of each entry?
Write the number on its own, no unit after it.

query: // lookup activity coefficient for Cc1ccc(C)cc1 [1,4-dimethylbenzene] + CCCCCCCCn1cc[n+](COCCCOC[n+]2ccn(CCCCCCCC)c2C)c1C.N#C[N-]C#N.N#C[N-]C#N
result: 1.36

query: // lookup activity coefficient for CCO [ethanol] + CCCOC[n+]1ccn(C)c1.N#C[N-]C#N
result: 0.71

query: // lookup activity coefficient for ClCCl [dichloromethane] + Cn1cc[n+](COCCCOC[n+]2ccn(C)c2)c1.N#C[N-]C#N.N#C[N-]C#N
result: 0.86

query: // lookup activity coefficient for CCCCO [butan-1-ol] + CCCOC[n+]1ccn(Cc2ccccc2)c1.N#C[N-]C#N
result: 0.82

query: // lookup activity coefficient for CC#N [acetonitrile] + Cn1cc[n+](COCCCOC[n+]2ccn(C)c2)c1.N#C[N-]C#N.N#C[N-]C#N
result: 0.69

query: // lookup activity coefficient for ClC(Cl)(Cl)Cl [tetrachloromethane] + CCCOC[n+]1ccn(C)c1.F[B-](F)(F)F
result: 8.19

query: // lookup activity coefficient for Cc1ccccc1C [1,2-dimethylbenzene] + CCCOC[n+]1ccc(N(C)C)cc1.O=S(=O)([N-]S(=O)(=O)C(F)(F)F)C(F)(F)F
result: 1.33

query: // lookup activity coefficient for CCC(C)=O [butanone] + CCCCCCCCn1cc[n+](COCCCOC[n+]2ccn(CCCCCCCC)c2C)c1C.O=S(=O)([N-]S(=O)(=O)C(F)(F)F)C(F)(F)F.O=S(=O)([N-]S(=O)(=O)C(F)(F)F)C(F)(F)F
result: 0.18

query: // lookup activity coefficient for ClC(Cl)Cl [trichloromethane] + Cn1cc[n+](COCCCOC[n+]2ccn(C)c2)c1.O=S(=O)([N-]S(=O)(=O)C(F)(F)F)C(F)(F)F.O=S(=O)([N-]S(=O)(=O)C(F)(F)F)C(F)(F)F
result: 0.71

query: // lookup activity coefficient for C#CCCCC [1-hexyne] + CCCCCCCCn1cc[n+](COCCC)c1C.N#C[N-]C#N
result: 2.01

query: // lookup activity coefficient for CCC(=O)CC [pentan-3-one] + CCCOC[n+]1ccn(Cc2ccccc2)c1.F[B-](F)(F)F
result: 1.75

query: // lookup activity coefficient for ClC(Cl)(Cl)Cl [tetrachloromethane] + CCCOC[n+]1ccn(Cc2ccccc2)c1.F[B-](F)(F)F
result: 4.58

query: // lookup activity coefficient for CC#N [acetonitrile] + CCCCCCCCn1cc[n+](COCCCOC[n+]2ccn(CCCCCCCC)c2C)c1C.N#C[N-]C#N.N#C[N-]C#N
result: 0.45

query: // lookup activity coefficient for c1ccncc1 [pyridine] + CCCOC[n+]1ccn(Cc2ccccc2)c1.N#C[N-]C#N
result: 0.71

query: // lookup activity coefficient for CCC[N+](=O)[O-] [1-nitropropane] + Cn1cc[n+](COCCCOC[n+]2ccn(C)c2)c1.O=S(=O)([N-]S(=O)(=O)C(F)(F)F)C(F)(F)F.O=S(=O)([N-]S(=O)(=O)C(F)(F)F)C(F)(F)F
result: 0.53

query: // lookup activity coefficient for CCCCCC [hexane] + CCCCCCCCn1cc[n+](COCCC)c1C.O=S(=O)([N-]S(=O)(=O)C(F)(F)F)C(F)(F)F
result: 3.12

query: // lookup activity coefficient for CC(C)O [propan-2-ol] + Cn1cc[n+](COCCCOC[n+]2ccn(C)c2)c1.O=S(=O)([N-]S(=O)(=O)C(F)(F)F)C(F)(F)F.O=S(=O)([N-]S(=O)(=O)C(F)(F)F)C(F)(F)F
result: 1.05

query: // lookup activity coefficient for CCCC(C)=O [pentan-2-one] + CN(C)c1cc[n+](COCCCOC[n+]2ccc(N(C)C)cc2)cc1.O=S(=O)([N-]S(=O)(=O)C(F)(F)F)C(F)(F)F.O=S(=O)([N-]S(=O)(=O)C(F)(F)F)C(F)(F)F
result: 0.71

query: // lookup activity coefficient for C[N+](=O)[O-] [nitromethane] + CCCOC[n+]1ccn(C)c1.O=S(=O)([N-]S(=O)(=O)C(F)(F)F)C(F)(F)F
result: 0.53

query: // lookup activity coefficient for CCC[N+](=O)[O-] [1-nitropropane] + CCCOC[n+]1ccc(N(C)C)cc1.O=S(=O)([N-]S(=O)(=O)C(F)(F)F)C(F)(F)F
result: 0.69

query: // lookup activity coefficient for Cc1cccc(C)c1 [1,3-dimethylbenzene] + Cn1cc[n+](COCCCOC[n+]2ccn(C)c2)c1.O=S(=O)([N-]S(=O)(=O)C(F)(F)F)C(F)(F)F.O=S(=O)([N-]S(=O)(=O)C(F)(F)F)C(F)(F)F
result: 2.38

query: // lookup activity coefficient for CC(C)OC(C)C [diisopropyl ether] + CCCOC[n+]1ccn(C)c1.F[B-](F)(F)F
result: 26.4

query: // lookup activity coefficient for Cc1ccc(C)cc1 [1,4-dimethylbenzene] + CCCOC[n+]1ccn(C)c1.N#C[N-]C#N
result: 6.05

query: // lookup activity coefficient for CCC(C)=O [butanone] + Cn1cc[n+](COCCCOC[n+]2ccn(C)c2)c1.N#C[N-]C#N.N#C[N-]C#N
result: 1.44

query: // lookup activity coefficient for Cc1ccccc1 [toluene] + CCCOC[n+]1ccn(Cc2ccccc2)c1.N#C[N-]C#N
result: 2.25

query: // lookup activity coefficient for CCCCCCCCCCCC [dodecane] + CCCOC[n+]1ccn(Cc2ccccc2)c1.F[B-](F)(F)F
result: 370

query: // lookup activity coefficient for CCC(=O)CC [pentan-3-one] + CCCCCCCCn1cc[n+](COCCC)c1C.O=S(=O)([N-]S(=O)(=O)C(F)(F)F)C(F)(F)F
result: 0.47

----------
Procedure details: activity coefficient (dimensionless); of the first substance listed, at infinite dilution; xn = mol fraction of the nth substance listed
Condition context: 333.15 K; Liquid; Chromatography; x1 = 0
Please map values of activity coefficient to classes as shown: low-valued = under 0.7, mid-valued = from 0.7 up to 3, high-valued = 3 and over

query: Sort into band: c1ccncc1 [pyridine] + Cn1cc[n+](COCCCOC[n+]2ccn(C)c2)c1.O=S(=O)([N-]S(=O)(=O)C(F)(F)F)C(F)(F)F.O=S(=O)([N-]S(=O)(=O)C(F)(F)F)C(F)(F)F
result: low-valued

query: Sort into band: Cc1ccc(C)cc1 [1,4-dimethylbenzene] + CCCOC[n+]1ccn(Cc2ccccc2)c1.O=S(=O)([N-]S(=O)(=O)C(F)(F)F)C(F)(F)F
result: mid-valued

query: Sort into band: CC#N [acetonitrile] + N#C[N-]C#N.N#C[N-]C#N.c1ccc(Cn2cc[n+](COCCCOC[n+]3ccn(Cc4ccccc4)c3)c2)cc1
result: mid-valued

query: Sort into band: CC(C)O [propan-2-ol] + CCCOC[n+]1ccn(C)c1.F[B-](F)(F)F
result: mid-valued

query: Sort into band: C1COCCO1 [1,4-dioxane] + CCCCCCCCn1cc[n+](COCCC)c1C.O=S(=O)([N-]S(=O)(=O)C(F)(F)F)C(F)(F)F
result: low-valued

query: Sort into band: Cc1ccccc1 [toluene] + CCCOC[n+]1ccn(C)c1.O=S(=O)([N-]S(=O)(=O)C(F)(F)F)C(F)(F)F
result: mid-valued

query: Sort into band: CCc1ccccc1 [ethylbenzene] + CCCOC[n+]1ccn(Cc2ccccc2)c1.F[B-](F)(F)F
result: high-valued

query: Sort into band: C1CCCCC1 [cyclohexane] + CCCCCCCCn1cc[n+](COCCC)c1C.N#C[N-]C#N
result: high-valued

query: Sort into band: ClCCl [dichloromethane] + CCCOC[n+]1ccn(C)c1.N#C[N-]C#N
result: mid-valued

query: Sort into band: CCC(C)CC [3-methylpentane] + CCCCCCCCn1cc[n+](COCCC)c1C.O=S(=O)([N-]S(=O)(=O)C(F)(F)F)C(F)(F)F
result: high-valued

query: Sort into band: C[N+](=O)[O-] [nitromethane] + CCCCCCCCn1cc[n+](COCCCOC[n+]2ccn(CCCCCCCC)c2C)c1C.O=S(=O)([N-]S(=O)(=O)C(F)(F)F)C(F)(F)F.O=S(=O)([N-]S(=O)(=O)C(F)(F)F)C(F)(F)F
result: low-valued

query: Sort into band: ClC(Cl)(Cl)Cl [tetrachloromethane] + Cn1cc[n+](COCCCOC[n+]2ccn(C)c2)c1.N#C[N-]C#N.N#C[N-]C#N
result: high-valued

query: Sort into band: CCCCCCCC [octane] + CCCCCCCCn1cc[n+](COCCCOC[n+]2ccn(CCCCCCCC)c2C)c1C.N#C[N-]C#N.N#C[N-]C#N
result: high-valued

query: Sort into band: CCC(=O)CC [pentan-3-one] + CCCCCCCCn1cc[n+](COCCCOC[n+]2ccn(CCCCCCCC)c2C)c1C.N#C[N-]C#N.N#C[N-]C#N
result: mid-valued

query: Sort into band: C1COCCO1 [1,4-dioxane] + CCCCCCCCn1cc[n+](COCCCOC[n+]2ccn(CCCCCCCC)c2C)c1C.N#C[N-]C#N.N#C[N-]C#N
result: low-valued

query: Sort into band: CCCO [propan-1-ol] + CCCCCCCCn1cc[n+](COCCCOC[n+]2ccn(CCCCCCCC)c2C)c1C.O=S(=O)([N-]S(=O)(=O)C(F)(F)F)C(F)(F)F.O=S(=O)([N-]S(=O)(=O)C(F)(F)F)C(F)(F)F
result: low-valued

query: Sort into band: c1ccsc1 [thiophene] + CN(C)c1cc[n+](COCCCOC[n+]2ccc(N(C)C)cc2)cc1.O=S(=O)([N-]S(=O)(=O)C(F)(F)F)C(F)(F)F.O=S(=O)([N-]S(=O)(=O)C(F)(F)F)C(F)(F)F
result: low-valued

query: Sort into band: C1CCCCCC1 [cycloheptane] + CCCOC[n+]1ccn(C)c1.O=S(=O)([N-]S(=O)(=O)C(F)(F)F)C(F)(F)F
result: high-valued

query: Sort into band: CC#N [acetonitrile] + CCCOC[n+]1ccn(C)c1.N#C[N-]C#N
result: mid-valued

query: Sort into band: CC1CCCC1 [methylcyclopentane] + CCCOC[n+]1ccc(N(C)C)cc1.O=S(=O)([N-]S(=O)(=O)C(F)(F)F)C(F)(F)F
result: high-valued

query: Sort into band: CCC[N+](=O)[O-] [1-nitropropane] + Cn1cc[n+](COCCCOC[n+]2ccn(C)c2)c1.O=S(=O)([N-]S(=O)(=O)C(F)(F)F)C(F)(F)F.O=S(=O)([N-]S(=O)(=O)C(F)(F)F)C(F)(F)F
result: low-valued

query: Sort into band: C1COCCO1 [1,4-dioxane] + Cn1cc[n+](COCCCOC[n+]2ccn(C)c2)c1.N#C[N-]C#N.N#C[N-]C#N
result: mid-valued

query: Sort into band: Cc1ccc(C)cc1 [1,4-dimethylbenzene] + N#C[N-]C#N.N#C[N-]C#N.c1ccc(Cn2cc[n+](COCCCOC[n+]3ccn(Cc4ccccc4)c3)c2)cc1
result: high-valued

query: Sort into band: CCC(=O)CC [pentan-3-one] + Cn1cc[n+](COCCCOC[n+]2ccn(C)c2)c1.N#C[N-]C#N.N#C[N-]C#N
result: high-valued

Cited source for all entries: the NIST ThermoML archive (doi:10.1016/j.fluid.2014.11.020)
